Reference source for all entries: patent US7196074B2

tested on: ventral prostate weight; assay: Oral androgenic potency, ventral prostate weight assay in orchidectomized immature rats (gavage daily for seven days); type: in vivo, Sprague-Dawley rats; details: gavage daily for 7 days in 10% ethanol/sesame oil (oily carrier); ventral prostate weight
READOUT_KIND: oral androgenic activity, times as potent as methyltestosterone (times)

>  <COMPOUND>
CCCCCCCCCCC(=O)O[C@H]1CC[C@H]2[C@H]3[C@H]([C@@H](C)C[C@]12C)[C@H]1CCC(=O)C=C1C[C@H]3C

>  <STUDY_TARGET>
ventral prostate weight

>  <RECORDED_RESULT>
2.36

$$$$
>  <COMPOUND>
CCCC[C@H]1CC[C@H](C(=O)O[C@H]2CC[C@H]3[C@H]4[C@H]([C@@H](C)C[C@]23C)[C@H]2CCC(=O)C=C2C[C@H]4C)CC1 (relative stereo)

>  <STUDY_TARGET>
ventral prostate weight

>  <RECORDED_RESULT>
3.77

$$$$
